TARGET_DESC: JAK1 (recombinant purified GST-tagged catalytic domain) (Homo sapiens (Human), UniProt P23458);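 note: biochemical assay with HTRF read-out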
Sequence (P23458 875-1153): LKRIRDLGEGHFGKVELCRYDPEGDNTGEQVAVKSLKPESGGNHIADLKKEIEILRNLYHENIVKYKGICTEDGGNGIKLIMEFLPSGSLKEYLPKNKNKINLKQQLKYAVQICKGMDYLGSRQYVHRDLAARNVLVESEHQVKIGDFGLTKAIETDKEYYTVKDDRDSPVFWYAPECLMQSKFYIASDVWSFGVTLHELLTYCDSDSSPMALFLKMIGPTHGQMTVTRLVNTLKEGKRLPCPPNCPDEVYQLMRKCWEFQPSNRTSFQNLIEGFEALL
ASSAY_INFO: biochemical
METRIC_NAME: pIC50
Just so you know, pIC50 here is -log10 of the concentration in molar units; reply with that number alone.

Task item: What does the data say about its pIC50? Entry: N#C[C@H]1CCCCC1n1cc(C(N)=O)c(Nc2ccc(S(=O)(=O)CC(F)(F)F)cc2)n1 (mixture of isomers)
Reply: 9.31

Task item: Can you share its pIC50? I mean this compound: N#C[C@H]1C[C@@H](N2CCC23COC3)CC[C@@H]1n1cc(C(N)=O)c(Nc2ccc(Cl)cc2)n1 (single isomer, unassigned)
Reply: 9.00

Task item: Which measured pIC50 value corresponds to C[C@@H]1C[C@@H](C)N1[C@H]1CC[C@H](n2cc(C(N)=O)c(Nc3ccc(C(F)(F)F)cc3)n2)[C@@H](C#N)C1 (single isomer, unassigned) ?
Reply: 8.70

---

TARGET_DESC: JAK2 (recombinant purified GST-tagged catalytic domain) (Homo sapiens (Human), UniProt O60674)
Sequence (O60674 849-1124): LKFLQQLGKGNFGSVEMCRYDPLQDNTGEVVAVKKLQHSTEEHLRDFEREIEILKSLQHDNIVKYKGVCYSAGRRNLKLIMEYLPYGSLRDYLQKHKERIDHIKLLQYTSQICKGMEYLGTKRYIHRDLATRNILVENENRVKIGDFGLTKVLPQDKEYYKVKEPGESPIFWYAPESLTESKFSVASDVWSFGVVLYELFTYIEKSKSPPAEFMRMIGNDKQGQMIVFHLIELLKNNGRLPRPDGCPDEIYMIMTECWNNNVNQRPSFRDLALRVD
ASSAY_INFO: biochemical
METRIC_NAME: IC50

Task item: IC50 lookup needed for CN(C)S(=O)(=O)CCNC1CC[C@H](n2cc(C(N)=O)c(Nc3ccc(S(=O)(=O)C(F)(F)F)cc3)n2)[C@@H](C#N)C1 (single isomer, unassigned) , thanks.
Reply: 13 nM

Task item: Report IC50 for N#C[C@H]1C[C@@H](O)CC[C@@H]1n1cc(C(N)=O)c(Nc2ccc(C3CC3)cc2)n1 (single isomer, unassigned) please.
Reply: 10 nM

Task item: What measured IC50 goes with N#C[C@H]1C[C@@H](NC2(CO)CC2)CCC1n1cc(C(N)=O)c(Nc2ccc(Cl)cc2)n1 (single isomer, unassigned) ?
Reply: 14 nM

Task item: // IC50 lookup, key: N#C[C@H]1C[C@@H](N2CCC2)CC[C@@H]1n1cc(C(N)=O)c(Nc2ccc(Cl)c(F)c2)n1 (single isomer, unassigned)
Reply: 84 nM

Task item: IC50 for N#C[C@H]1CCCC[C@@H]1n1cc(C(N)=O)c(Nc2ccc(Cl)c(F)c2)n1 (racemic) ?
Reply: 37 nM

Task item: # query: IC50 of entry CC(C)(c1ccc(Nc2nn([C@H]3CC[C@H](O)C[C@@H]3C#N)cc2C(N)=O)cc1)C(O)C(F)(F)F (single isomer, unassigned) [Example 33-16]
Reply: 3 nM

---

TARGET_DESC: JAK2 (recombinant purified GST-tagged catalytic domain) (Homo sapiens (Human), UniProt O60674);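 note: biochemical JAK kinase assay with HTRF detection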
ASSAY_INFO: biochemical
pIC50: −log10 of the molar value.
Where pIC50 equals or exceeds 7, the correct label is Condition met; where it does not, the label is Condition not met.

Task item: Assess whether reported pIC50 for N#C[C@H]1C[C@@H](N2CCC23COC3)CC[C@@H]1n1cc(C(N)=O)c(Nc2ccc(Cl)cc2)n1 (single isomer, unassigned) [Example 28-146] sits at 7 or higher.
Reply: Condition met

Task item: Confirm if pIC50 reported for the compound CNC(=O)O[C@H]1CCC(n2cc(C(N)=O)c(Nc3ccc(F)cc3)n2)[C@@H](C#N)C1 (mixture of isomers) [Example 34-9] is 7 or above.
Reply: Condition met

Task item: Hi, just wondering whether Cn1cc(-c2cc(Nc3nn([C@H]4CCCC[C@@H]4C#N)cc3C(N)=O)ccn2)cn1 (racemic) [Example 17-22] shows pIC50 of 7 or higher.
Reply: Condition met

Task item: Is reported pIC50 greater than or equal to 7 here: N#C[C@H]1CCC[C@@H](O)C1n1cc(C(N)=O)c(Nc2ccccc2)n1 (mixture of isomers) [Example 2-6]
Reply: Condition not met

Task item: Is reported pIC50 greater than or equal to 7 here: N#C[C@H]1C[C@H](NC2(C(F)(F)F)CC2)CC[C@@H]1n1cc(C(N)=O)c(Nc2ccc(Cl)cc2)n1 (single isomer, unassigned) [Example 28-227]
Reply: Condition not met
